Biological target: T1, G-CSF receptor (natural G-CSF receptor, found on hematopoietic cells) (mouse (bone marrow cells of Balb C …, UniProt P40223 26-837))
T1 sequence (looked up): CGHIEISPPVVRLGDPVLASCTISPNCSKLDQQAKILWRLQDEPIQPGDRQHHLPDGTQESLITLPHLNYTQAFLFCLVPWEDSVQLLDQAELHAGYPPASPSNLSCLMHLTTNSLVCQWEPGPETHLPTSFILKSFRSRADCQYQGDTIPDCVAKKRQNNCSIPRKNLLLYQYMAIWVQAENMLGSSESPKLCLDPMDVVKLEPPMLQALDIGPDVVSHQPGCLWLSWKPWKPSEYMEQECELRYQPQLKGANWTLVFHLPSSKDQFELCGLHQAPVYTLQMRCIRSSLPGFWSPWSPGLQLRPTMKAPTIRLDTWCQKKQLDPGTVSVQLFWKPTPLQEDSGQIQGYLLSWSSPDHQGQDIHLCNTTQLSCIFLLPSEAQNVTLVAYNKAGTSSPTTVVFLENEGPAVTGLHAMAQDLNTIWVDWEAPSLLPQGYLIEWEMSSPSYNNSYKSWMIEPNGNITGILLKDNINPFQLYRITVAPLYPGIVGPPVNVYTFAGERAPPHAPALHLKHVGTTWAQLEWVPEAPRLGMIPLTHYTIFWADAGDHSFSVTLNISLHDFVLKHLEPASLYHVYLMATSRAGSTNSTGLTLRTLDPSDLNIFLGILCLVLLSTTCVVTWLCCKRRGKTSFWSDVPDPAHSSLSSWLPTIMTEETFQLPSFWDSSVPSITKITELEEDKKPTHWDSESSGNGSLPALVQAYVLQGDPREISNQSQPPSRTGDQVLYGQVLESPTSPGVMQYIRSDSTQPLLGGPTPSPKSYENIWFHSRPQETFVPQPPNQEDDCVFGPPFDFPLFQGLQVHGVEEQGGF
Experiment: cell-based or functional assay
Measure name: % Normal G-CSF Activity (3H-thymidine uptake, mouse bone marrow cells) (%)
Response body: numeric value in %, unit text excluded.

Field: example entries. Status: answers known.
Binder	Observed measurement
G-CSF analog Lys24->Ala24 (ligand) MTPLGPASSLPQSFLLKCLEQVRAIQGDGAALQEKLCATYKLCHPEELVLLGHSLGIPWAPLSSCPSQALQLAGCLSQLHSGLFLYQGLLQALEGISPELGPTLDTLQLDVADFATTIWQQMEELGMAPALQPTQGAMPAFASAFQRRAGGVLVASHLQSFLEVSYRVLRHLAQP	0
G-CSF analog Ser13->Ala13 (ligand) MTPLGPASSLPQAFLLKCLEQVRKIQGDGAALQEKLCATYKLCHPEELVLLGHSLGIPWAPLSSCPSQALQLAGCLSQLHSGLFLYQGLLQALEGISPELGPTLDTLQLDVADFATTIWQQMEELGMAPALQPTQGAMPAFASAFQRRAGGVLVASHLQSFLEVSYRVLRHLAQP	110
G-CSF analog Arg167->Ala167 (ligand) MTPLGPASSLPQSFLLKCLEQVRKIQGDGAALQEKLCATYKLCHPEELVLLGHSLGIPWAPLSSCPSQALQLAGCLSQLHSGLFLYQGLLQALEGISPELGPTLDTLQLDVADFATTIWQQMEELGMAPALQPTQGAMPAFASAFQRRAGGVLVASHLQSFLEVSYAVLRHLAQP	110
G-CSF analog Arg170->Ala170 (ligand) MTPLGPASSLPQSFLLKCLEQVRKIQGDGAALQEKLCATYKLCHPEELVLLGHSLGIPWAPLSSCPSQALQLAGCLSQLHSGLFLYQGLLQALEGISPELGPTLDTLQLDVADFATTIWQQMEELGMAPALQPTQGAMPAFASAFQRRAGGVLVASHLQSFLEVSYRVLAHLAQP	100
G-CSF analog Met127,138->Leu127,138 (ligand) MTPLGPASSLPQSFLLKCLEQVRKIQGDGAALQEKLCATYKLCHPEELVLLGHSLGIPWAPLSSCPSQALQLAGCLSQLHSGLFLYQGLLQALEGISPELGPTLDTLQLDVADFATTIWQQMEELGLAPALQPTQGALPAFASAFQRRAGGVLVASHLQSFLEVSYRVLRHLAQP	98

Please look at the following binder next.
Any idea what its % Normal G-CSF Activity (3H-thymidine uptake, mouse bone marrow cells) is? The binder is G-CSF analog Thr117->Ala117 (ligand) MTPLGPASSLPQSFLLKCLEQVRKIQGDGAALQEKLCATYKLCHPEELVLLGHSLGIPWAPLSSCPSQALQLAGCLSQLHSGLFLYQGLLQALEGISPELGPTLDTLQLDVADFATAIWQQMEELGMAPALQPTQGAMPAFASAFQRRAGGVLVASHLQSFLEVSYRVLRHLAQP
9.7

Cited source for all entries: patent US20030171559A1
